The reported numbers originate from ChEMBL document CHEMBL2396597.

Test: Drug uptake in tumor of NOD/SCID mouse xenografted with human MV4-11 cells at 100 mg/kg, po measured at 6 hrs by LC-MS/MS analysis
Format: ADME, organism-based, Neoplasm
Set-up: dose 100 mg/kg, route oral
Settings: read-out: Drug uptake
readout_type: concentration at 6 h
The answer consists of two parts: a number and, after it, its unit.

INSERT INTO results (mol_smiles, readout_type, experimental_result) VALUES
  ('CC(C)C1=C(C(=O)N2[C@H](C)CC[C@H]2C(=O)N2CCN(C)[C@H](C)C2)SC2=N[C@@](C)(c3ccc(Cl)cc3)[C@@H](c3ccc(Cl)cc3)N21', 'concentration at 6 h', '27500 ng/mL');

Moving on to the next molecule.
Request: Query (molecule): `CC[C@@H]1CC[C@@H](C(=O)N2CCN(C(C)=O)[C@H](C)C2)N1C(=O)C1=C(C(C)C)N2C(=N[C@@](C)(c3ccc(Cl)cc3)[C@H]2c2ccc(Cl)cc2)S1` ; field requested: concentration at 6 h
Result: 25200 ng/mL

###

Assay: Plasma concentration in NOD/SCID mouse at 100 mg/kg, po measured at 2 hrs
Assay type: ADME, organism-based
Design: dose 100 mg/kg, route oral
readout_type: concentration at 2 h (ng/mL)
Express it in ng/mL; write the number only.

INSERT INTO measurements (mol_smiles, quantity_unit, experimental_result) VALUES
  ('CC(C)C1=C(C(=O)N2[C@H](C)CC[C@H]2C(=O)N2CCN(C)[C@H](C)C2)SC2=N[C@@](C)(c3ccc(Cl)cc3)[C@@H](c3ccc(Cl)cc3)N21', 'ng/mL', 7800);

Request: Query (compound): `CC[C@@H]1CC[C@@H](C(=O)N2CCN(C(C)=O)[C@H](C)C2)N1C(=O)C1=C(C(C)C)N2C(=N[C@@](C)(c3ccc(Cl)cc3)[C@H]2c2ccc(Cl)cc2)S1` ; field requested: concentration at 2 h
Result: 68400

###

Test: Plasma concentration in NOD/SCID mouse at 100 mg/kg, po measured at 24 hrs
Type: ADME, organism-based
Parameters: dose 100 mg/kg, route oral
readout_type: concentration at 24 h (ng/mL)
Express it in ng/mL; write the number only.

INSERT INTO results (mol_smiles, experimental_result) VALUES
  ('CC[C@@H]1CC[C@@H](C(=O)N2CCN(C(C)=O)[C@H](C)C2)N1C(=O)C1=C(C(C)C)N2C(=N[C@@](C)(c3ccc(Cl)cc3)[C@H]2c2ccc(Cl)cc2)S1', 100);

Moving on to the next compound.
Request: Query (compound): `CC(C)C1=C(C(=O)N2[C@H](C)CC[C@H]2C(=O)N2CCN(C)[C@H](C)C2)SC2=N[C@@](C)(c3ccc(Cl)cc3)[C@@H](c3ccc(Cl)cc3)N21` ; field requested: concentration at 24 h
Result: 300
